- Test system: HCT-15
Values of GI50 strictly less than 30 µM map to Condition met, and values of at least 30 µM map to Condition not met.

COC(=O)CC1C=CC(C)(OC)OO1 (stereo unspecified) ... Condition not met
CC1=CC(=O)/C(=C/NC(=S)Nc2ccccc2)C(=O)O1 ... Condition not met
CCC1(CC)C(=O)N(C(=O)c2ccc(C)cc2)N(C(=O)c2ccc(C)cc2)C1=O ... Condition not met
O=C1OC(CS(=O)(=O)c2ccccc2)CC1O (stereo unspecified) ... Condition not met
N#CC(NC12CC3CC(CC(C3)C1)C2)c1ccccc1C(F)(F)F (stereo unspecified) ... Condition not met
Fc1ccc(C2(CCCN3CCc4[nH]c5cc(F)ccc5c4C3)OCCO2)cc1 ... Condition met
CNC1Cc2c[nH]c3cccc(c23)C12C=C(C)C(=O)O2 (stereo unspecified) ... Condition not met
COc1ccc2nc(-c3cccs3)cc(C(O)CN3CCSCC3)c2c1 (stereo unspecified) ... Condition met
O=C1/C(=C/c2ccccc2)CCC/C1=C\c1ccc(O)c(CN2CCCCC2)c1 ... Condition met
Clc1ccc(OCc2nnc3n2N=C(c2ccccc2)CS3)c(Cl)c1 ... Condition not met
COC(=O)C1=CCON(c2ccccc2)C1c1ccccc1 (stereo unspecified) ... Condition not met

----------
Each item that follows carries a reported GI50.
- Test system: SF-539
- Procedure Details: NCI tumour cell line growth inhibition, 48 h
Active and inactive are the calls of the source. Rule as the data show it: active = GI50 up to about 1.1 µM and inactive = higher.
Attribute Measured: GI50

C[Si]1(C)C(c2ccccc2)=CC2C(c3ccccc3)(c3ccccc3)OC21c1ccccc1 (stereo not drawn) ... > 100 µM (inactive)
Oc1nc2cc3nc(O)c(O)nc3cc2nc1O ... > 100 µM (inactive)
O=c1c2c(sc3ccccc13)NCN(CCc1ccccc1)C2 ... 55.3 µM (inactive)
N#Cc1c(-c2ccccc2)cc(Nc2ccc(F)cc2)n2c1nc1ccccc12 ... 3.26 µM (inactive)
O=Cc1[nH]c(=O)[nH]c(=O)c1C(=O)O ... > 100 µM (inactive)
N#CC1(C#N)NC(c2ccsc2)C(C#N)(C#N)NC1c1ccsc1 (stereo not drawn) ... > 100 µM (inactive)
CC(C)(C)OC(=O)N(CCCN)CCCCN ... > 100 µM (inactive)
CC/C=C\C/C=C\C1CC(=O)NCCCNCCCCN1 (stereo not drawn) ... > 100 µM (inactive)
COc1ccc(C(=O)CC(c2ccc(OC)c(OC)c2)c2c(O)oc3ccccc3c2=O)cc1OC (stereo not drawn) ... > 100 µM (inactive)
O=C(CN1CCCCC1)CC(O)(C(F)(F)F)C(F)(F)F ... > 100 µM (inactive)
O=C1c2c(nc3ccccc3c2-c2ccccc2)CN1Nc1ccccn1 ... > 75.2 µM (inactive)
Cc1nn(C(=O)c2ccccc2O)c2c1C(c1ccc([N+](=O)[O-])cc1)SC(=N)N2 (stereo not drawn) ... 0.984 µM (active)
Cc1ccc(S(=O)(=O)N/N=C2\CC(C)OC3=C2CCCCCC3)cc1 (stereo not drawn) ... 20.5 µM (inactive)
CCCSc1ccc2[nH]c(N3C(=O)/C(=C/c4cc(OC)c(OC)c(OC)c4)N=C3c3ccccc3)cc2c1 ... 1.72 µM (inactive)
CCCC(=O)Nc1cc(/C=C/C(=O)N2CC(CCl)c3ccc([N+](=O)[O-])cc32)n(C)c1 (stereo not drawn) ... 43.4 µM (inactive)
CCOc1ccccc1/N=N/c1ccc2oc(=O)c(C(C)=O)cc2c1 ... > 100 µM (inactive)
Cc1ccc(CC(C)N)cc1 (stereo not drawn) ... > 100 µM (inactive)
Cc1ccc(NC(=O)C(=O)Cc2cccc[n+]2[O-])cc1C ... > 100 µM (inactive)
Cc1ccc(C(CCO)CCO)nc1 ... > 100 µM (inactive)
Cc1c(Cl)ccc2c(=O)c3cccc(CC(=O)O)c3oc12 ... > 100 µM (inactive)
COc1ccc(-c2c3c(cc4cc5c(cc24)OCO5)C(=O)OC3)cc1OC ... 3.5 µM (inactive)
CN1CCCN2CCN(C)CCCN(CC1)CC2 ... > 100 µM (inactive)
O=C1/C(=C\c2cccc(Oc3ccccc3)c2)SC(c2ccccc2)N1c1cccc([N+](=O)[O-])c1 (stereo not drawn) ... 25.1 µM (inactive)

----------
- Test system: HOP-62
- Procedure Details: NCI tumour cell line growth inhibition, 48 h
Activity calls are given as the source filed them. No stated cut-off is given here; in the data, active = GI50 up to about 1.1 µM and inactive = higher. Residues, ends and D or L forms follow the SMILES beside them. *: point of attachment. Cbz = O=C(OCc1ccccc1)*
Attribute Measured: GI50

CN(C(=O)c1ccc([N+](=O)[O-])cc1)c1ccccc1 ... > 100 µM (inactive)
CCOC(=O)CCC(NC(=O)OCc1ccccc1)C(=O)NC(CCC(=O)OCC)C(=O)OCC (stereo not given) (Cbz-Glu(OEt)-Glu(OEt)-OEt; configuration not given here) ... > 100 µM (inactive)
Cc1ccn2c(CCc3nnc4cc(C)ccn34)nnc2c1 ... > 100 µM (inactive)
Cc1cc2c3c(c1)S(=O)(=O)c1cc(Cl)ccc1N3CCC2 ... 76.7 µM (inactive)
COc1cc(Nc2nc3cc(C(F)(F)F)ccc3n3cccc23)cc(OC)c1OC ... > 100 µM (inactive)
CCCP1(=O)C=C(C)C(=C(Cl)Cl)C(C)=C1 (stereo not given) ... 49.3 µM (inactive)
COc1ccccc1-n1c(C)nc2ccccc2c1=O ... > 100 µM (inactive)
CON(C)C(=O)C(C)NC(=O)OCc1ccccc1 (stereo not given) ... > 100 µM (inactive)
O=C(NCCCCNCCCNC(=O)c1cc(-c2ccccc2)nc2ccccc12)c1cc(-c2ccccc2)nc2ccccc12 ... 1.63 µM (inactive)
O=C1C2=C(c3ccccc31)C(c1ccccc1)NC(S)=N2 (stereo not given) ... > 100 µM (inactive)

----------
Each item that follows carries a reported GI50.
- Test system: A498
- Procedure Details: NCI tumour cell line growth inhibition, 48 h
Activity calls are given as the source filed them. Rule as the data show it: active = GI50 up to about 1.1 µM and inactive = higher.
Attribute Measured: GI50

O=C1NC(N2CCCCC2)=N/C1=C\c1ccccc1O ... > 100 µM (inactive)
CN/C(=N\N=C1/C(=O)Nc2ccccc21)SCC(=O)c1ccc(Br)cc1 ... 17.4 µM (inactive)
CON(C)C(=O)C(C)NC(=O)OCc1ccccc1 (stereo not given) ... > 100 µM (inactive)
COc1ccc(CNc2nc3cc(C(F)(F)F)ccc3nc2C)cc1OC ... 24.3 µM (inactive)
CCCCCCCCCCCCCC(=O)O.O=CC(O)C(O)C(OC1OC(CO)C(O)C(O)C1O)C(O)CO (stereo not given) ... > 100 µM (inactive)
COC(=O)CC(NC(=O)OCc1ccccc1)C(C(=O)OCc1ccccc1)C(C)(OC)OC (stereo not given) ... 3.95 µM (inactive)
COc1ccc(N2C(=O)CC(=O)N(NC(=O)C(C)Oc3ccccc3C)C2=S)cc1 (stereo not given) ... > 100 µM (inactive)
[N-]=[N+]=NC1=CC(=O)c2cccc3cccc1c23 ... 12.2 µM (inactive)
CN(C)CCCNc1ccc2nnn3c4ccc(OC(=O)c5ccccc5)cc4c(=O)c1c23 ... 8.41 µM (inactive)
C=C1C(=O)C=C[C@]2(C)CC[C@H]3C(=C)C(=O)O[C@@H]3[C@@H]12 ... 3.52 µM (inactive)

----------
- System: UACC-257
- Procedure Details: NCI tumour cell line growth inhibition, 48 h
Active and inactive are the calls of the source. Cut-off read from the data, not from the text of the source: active = GI50 up to about 1.1 µM and inactive = higher.
Each item that follows carries a reported GI50.
Attribute Measured: GI50

COC(=O)C(Br)C1CCc2ccccc21 (configuration not stated) ... > 100 µM (inactive)
Cc1ccc(NC(=O)C(=O)Cc2cccc[n+]2[O-])cc1C ... > 100 µM (inactive)
Cc1ccc(CC(C)N)cc1 (configuration not stated) ... > 100 µM (inactive)
COP(=O)(OC)C(N)CCSC (configuration not stated) ... > 100 µM (inactive)
COc1cc2ncnc(NS(=O)(=O)c3cc4ccccc4s3)c2cc1OC ... > 100 µM (inactive)
c1coc(C2=Nc3cccc4cccc(c34)N2)c1 ... 41.4 µM (inactive)
O=C1c2cccnc2S(=O)(=O)N1c1ccc(Oc2ccccc2)cc1 ... 92.7 µM (inactive)
O=S1(=O)CS(=O)(=O)OCCCO1 ... > 100 µM (inactive)
COc1ccc(OC)c(CNc2ccc(C(=O)O)cc2)c1 ... > 100 µM (inactive)
N#CNc1nc(C(=O)Nc2ccc(Cl)cc2)cc(-c2ccccc2)n1 ... > 100 µM (inactive)
Brc1ccc(C[P+]2(c3ccccc3)CCCCC2)cc1.[O-][Cl+3]([O-])([O-])[O-] ... 23.9 µM (inactive)
CC1=CP(=O)(OC(C)C)C=C(C)C1=C(Cl)Cl (configuration not stated) ... 32.2 µM (inactive)

----------
- Tested on: SNB-75
- Procedure Details: NCI tumour cell line growth inhibition, 48 h
Activity calls are given as the source filed them. Cut-off read from the data, not from the text of the source: active = GI50 up to about 1.1 µM and inactive = higher.
Each item that follows carries a reported GI50.
Attribute Measured: GI50

O=C(O)C(=O)Cc1ccc2c(c1)OCO2 ... > 100 µM (inactive)
Cc1ccn2c(CCc3nnc4cc(C)ccn34)nnc2c1 ... > 100 µM (inactive)
COc1cc2c(c(O)c1C)C(=O)CC(c1ccccc1)O2 (stereo unspecified) ... 28.8 µM (inactive)
Cc1ccc(NC(=O)CC/C(CC(=O)c2ccc(F)cc2)=N\NC(=O)C(=O)NN)cc1C ... > 100 µM (inactive)
Cc1cc(N2CCCCC2)nc2ccc(Cc3ccc4nc(N5CCCCC5)cc(C)c4c3)cc12 ... > 100 µM (inactive)
COc1ccc(C(=O)CC(c2ccc(OC)c(OC)c2)c2c(O)oc3ccccc3c2=O)cc1OC (stereo unspecified) ... > 100 µM (inactive)
O=C(CCn1ccnc1[N+](=O)[O-])NCCCn1ccnc1[N+](=O)[O-] ... > 100 µM (inactive)
COc1ccc2nc(-c3cccs3)cc(C(O)CN3CCSCC3)c2c1 (stereo unspecified) ... 23.6 µM (inactive)
CCCn1c(CN(Cc2nc3ccccc3n2CCC)Cc2nc3ccccc3n2CCC)nc2ccccc21 ... 6.79 µM (inactive)
O=c1[nH]c2ccccc2c2oc(-c3ccccc3)nc12 ... 20.2 µM (inactive)
C/C(=N\NC(N)=S)c1ccc(C)c(C)c1 ... 40.3 µM (inactive)
